Quick list: pEC50 per entry.
- studySystem: human GALR3 (Homo sapiens)
- Construct: host or cells: HEK293 cells stably expressing Gαqi
- Sequence (O60755 1-368): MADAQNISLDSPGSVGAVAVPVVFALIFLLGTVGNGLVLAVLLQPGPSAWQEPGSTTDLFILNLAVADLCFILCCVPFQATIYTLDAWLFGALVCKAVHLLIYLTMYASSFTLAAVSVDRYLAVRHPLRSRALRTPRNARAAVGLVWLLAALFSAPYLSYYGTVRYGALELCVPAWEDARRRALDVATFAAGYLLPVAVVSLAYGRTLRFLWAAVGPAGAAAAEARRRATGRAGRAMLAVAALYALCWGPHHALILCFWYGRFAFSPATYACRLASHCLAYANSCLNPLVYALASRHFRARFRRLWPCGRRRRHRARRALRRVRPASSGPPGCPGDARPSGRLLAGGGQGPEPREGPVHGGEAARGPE
- procedureDetails: SRE-luc reporter assay, GALR3;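 also: luciferase activity read in cell lysates across rising peptide concentrations, EC50 being the agonist concentration giving half-maximal stimulation from a sigmoidal nonlinear fit, Gαqi routing Gi-coupled receptor signaling through Gq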
- Type: cell-based
- protocolConditions: HEK293-Gqi cells transfected with SRE-luc and human GALR3; 6 h ligand treatment; mean ± S.E. of at least three independent experiments; NM = not measurable; read-out: GALR3 EC50
pEC50: −log10 of the molar value. Where a SMILES comes first, the peptide text is derived from it. [ ]: non-standard residue; d: D form.
quantity: pEC50

* CSCC[C@H](NC(=O)[C@H](C)NC(=O)[C@H](CCC(N)=O)NC(=O)[C@@H]1CCCN1C(=O)[C@@H](NC(=O)[C@H](Cc1c[nH]c2ccccc12)NC(=O)[C@@H](N)CC(N)=O)[C@@H](C)O)C(=O)N[C@@H](CC(C)C)C(=O)N[C@@H](Cc1ccc(O)cc1)C(=O)N[C@@H](CC(C)C)C(=O)N[C@@H](CCCCN)C(=O)NCC(=O)N[C@@H](C)C(=O)N[C@@H](CCC(N)=O)C(N)=O [WT, spexin, reference compound] | 6.95
* CSCC[C@H](NC(=O)[C@H](C)NC(=O)[C@H](CCC(N)=O)NC(=O)[C@@H]1CCCN1C(=O)[C@@H](NC(=O)[C@H](Cc1c[nH]c2ccccc12)NC(=O)[C@@H](N)CC(N)=O)[C@@H](C)O)C(=O)N[C@@H](CC(C)C)C(=O)N[C@@H](Cc1ccc(O)cc1)C(=O)N[C@@H](CC(C)C)C(=O)N[C@@H](CCCCN)C(=O)N[C@H](C)C(=O)N[C@@H](C)C(=O)N[C@@H](CCC(N)=O)C(N)=O [dA12] (H-NWTPQAMLYLK[dA]AQ-NH2) | 5.85
* CSCC[C@H](NC(=O)[C@H](C)NC(=O)[C@H](CCC(N)=O)NC(=O)[C@@H]1CCCN1C(=O)[C@@H](NC(=O)[C@H](Cc1c[nH]c2ccccc12)NC(=O)[C@H](CC(N)=O)NC(=O)OCC1c2ccccc2-c2ccccc21)[C@@H](C)O)C(=O)N[C@@H](CC(C)C)C(=O)N[C@@H](Cc1ccc(O)cc1)C(=O)N[C@@H](CC(C)C)C(=O)N[C@@H](CCCCN)C(=O)NCC(=O)N[C@@H](C)C(=O)N[C@@H](CCC(N)=O)C(N)=O [Fmoc] | 6.90
* CSCC[C@H](NC(=O)[C@@H](C)NC(=O)[C@H](CCC(N)=O)NC(=O)[C@@H]1CCCN1C(=O)[C@@H](NC(=O)[C@H](Cc1c[nH]c2ccccc12)NC(=O)[C@@H](N)CC(N)=O)[C@@H](C)O)C(=O)N[C@@H](CC(C)C)C(=O)N[C@@H](Cc1ccc(O)cc1)C(=O)N[C@@H](CC(C)C)C(=O)N[C@@H](CCCCN)C(=O)NCC(=O)N[C@@H](C)C(=O)N[C@@H](CCC(N)=O)C(N)=O [dA6] | 6.50
